System: ABUTH (Abutilon theophrasti)
protocol.text: Preemergence herbicidal evaluation
Format: in vivo, Medic.
condition.summary: Rate 0.1250 kg/ha; preemergence; rated 4-5 weeks after treatment
measured.metric: ABUTH preemergence herbicidal rating

>>> recorded_number("Cn1c(C(F)(F)F)cc(=O)n(-c2ccc3snc(C4OCCCS4)c3c2)c1=O (stereo not drawn)")
9.0
>>> recorded_number("Cc1cc(C)c(-c2nsc3ccc(-n4c(=O)cc(C(F)(F)F)n(C)c4=O)cc23)s1")
6.0
>>> recorded_number("Cn1c(C(F)(F)F)cc(=O)n(-c2ccc3snc(C4SCCN4C(=O)c4ccccc4)c3c2)c1=O (stereo not drawn)")
9.0

====

Tested on: ECHCG (Echinochloa crus-galli)
protocol.text: Postemergence herbicidal evaluation
Assay type: in vivo, (L.) Beau
condition.summary: rate 0.0620 kg/ha
Measured Postemergence herbicidal rating, ECHCG by item
measured.metric: Postemergence herbicidal rating, ECHCG

>>> recorded_number("Cc1cc(C)nc(-c2nsc3ccc(-n4c(=O)cc(C(F)(F)F)n(C)c4=O)cc23)n1 [Compound 40]")
1.0
>>> recorded_number("Cn1c(C(F)(F)F)cc(=O)n(-c2ccc3c(c2)C(c2cccc[n+]2[O-])=NS3(=O)=O)c1=O [Compound 15]")
1.0
>>> recorded_number("COC(=O)C(C)Oc1ccsc1-c1nsc2ccc(-n3c(=O)cc(C(F)(F)F)n(C)c3=O)cc12 (stereo not drawn) [Compound 23]")
1.0

====

The following compounds are listed with their measured TRZAWR herbicidal rating values.
System: TRZAWR (Wheat, Winter, cv Riband)
protocol.text: Postemergence herbicidal evaluation
Format: in vivo, Triticum aestivum
condition.summary: postemergence, rate 0.0620 kg/ha
measured.metric: TRZAWR herbicidal rating

>>> recorded_number("CC1COC(c2nsc3ccc(-n4c(=O)cc(C(F)(F)F)n(C)c4=O)cc23)O1 (stereo not drawn)")
5.0
>>> recorded_number("CC1CC(C)(C)OC(c2nsc3ccc(-n4c(=O)cc(C(F)(F)F)n(C)c4=O)cc23)O1 (stereo not drawn)")
5.0
>>> recorded_number("COCC1COC(c2nsc3ccc(-n4c(=O)cc(C(F)(F)F)n(C)c4=O)cc23)O1 (stereo not drawn)")
5.0

====

System: ORYSAT (Rice, Tebonnet)
protocol.text: Flooded paddy, post-transplant and postemergence rice tolerance
Assay type: in vivo, Oryza sativa, (L.) Tebonnet
condition.summary: 0.0320 kg/ha into flood water; post-transplant rice; rated 3-4 weeks after treatment
measured.metric: herbicide rating (0-9) ORYSAT (rice tolerance)

>>> result("Cn1c(C(F)(F)F)cc(=O)n(-c2ccc3snc(C4OC(C)(C)C(C)(C)O4)c3c2)c1=O [Compound 56]")
7.0
>>> result("Cn1c(C(F)(F)F)cc(=O)n(-c2ccc3snc(-c4nccs4)c3c2)c1=O [Compound 53]")
2.0
>>> result("COC(=O)COc1ccsc1-c1nsc2ccc(-n3c(=O)cc(C(F)(F)F)n(C)c3=O)cc12 [Compound 22]")
0.0
>>> result("CCc1cc(-c2nsc3ccc(-n4c(=O)cc(C(F)(F)F)n(C)c4=O)cc23)c(CC)s1 [Compound 8]")
1.0
>>> result("Cn1c(C(F)(F)F)cc(=O)n(-c2ccc3snc(-c4sccc4Cl)c3c2)c1=O [Compound 52]")
4.0

====

Parameter: Preemergence herbicidal rating ORYSAT. Scope: all listed entries.
Test system: ORYSAT (Rice, Tebonnet)
protocol.text: Preemergence herbicidal evaluation
Type: in vivo, Oryza sativa, (L.) Tebonnet
condition.summary: Rate 0.0620 kg/ha; rated 4-5 weeks after treatment
measured.metric: Preemergence herbicidal rating ORYSAT

>>> recorded_number("Cn1c(C(F)(F)F)cc(=O)n(-c2ccc3snc(-c4ccco4)c3c2)c1=O")
1.0
>>> recorded_number("C[C@H]1OC(c2nsc3ccc(-n4c(=O)cc(C(F)(F)F)n(C)c4=O)cc23)O[C@@H]1C")
7.5
>>> recorded_number("C[C@@H]1OC(c2nsc3cc(F)c(-n4c(=O)cc(C(F)(F)F)n(C)c4=O)cc23)O[C@@H]1C (some centres unmarked) [Compound 66]")
8.5
>>> recorded_number("Cc1cc(C)nc(-c2nsc3ccc(-n4c(=O)cc(C(F)(F)F)n(C)c4=O)cc23)n1")
1.0
>>> recorded_number("Cn1c(C(F)(F)F)cc(=O)n(-c2ccc3snc(-c4sccc4CBr)c3c2)c1=O")
0.5

====

Tested on: ORYSAT (Rice, Tebonnet)
protocol.text: Flooded paddy, post-transplant rice tolerance
Assay type: in vivo, Oryza sativa, (L.) Tebonnet
condition.summary: flooded paddy, post-transplant rice; rate 0.1250 kg/ha; rated 3-4 weeks after treatment; 0-9 rating scale
measured.metric: herbicidal rating, ORYSAT (rice tolerance)

>>> recorded_number("Cc1cccnc1-c1nsc2cc(F)c(N3C(=O)C4=C(CCCC4)C3=O)cc12")
3.0
>>> recorded_number("C=C1COC(c2nsc3ccc(-n4c(=O)cc(C(F)(F)F)n(C)c4=O)cc23)OC1")
7.0
>>> recorded_number("Cn1c(C(F)(F)F)cc(=O)n(-c2ccc3snc(-c4ccsc4)c3c2)c1=O")
7.0

====

Test system: ORYSAT (Rice, Tebonnet)
protocol.text: Flooded paddy, post-transplant rice tolerance
Type: in vivo, Oryza sativa, (L.) Tebonnet
condition.summary: flooded paddy, post-transplant rice; rate 0.0320 kg/ha; rated 3-4 weeks after treatment; 0-9 rating scale
Classification field: 1.0 = herbicidal rating, ORYSAT (rice tolerance) at or over 4; 0.0 = herbicidal rating, ORYSAT (rice tolerance) under 4.

>>> assigned_class("Cc1cscc1-c1nsc2ccc(-n3c(=O)cc(C(F)(F)F)n(C)c3=O)cc12 [Compound 26]")
0.0
>>> assigned_class("CCOc1cc(OCC)nc(-c2nsc3ccc(-n4c(=O)cc(C(F)(F)F)n(C)c4=O)cc23)n1 [Compound 43]")
0.0
>>> assigned_class("COCC1COC(c2nsc3ccc(-n4c(=O)cc(C(F)(F)F)n(C)c4=O)cc23)O1 (centres unmarked) [Compound 64]")
1.0
>>> assigned_class("Cc1cnn(-c2nsc3ccc(-n4c(=O)cc(C(F)(F)F)n(C)c4=O)cc23)c1 [Compound 59]")
0.0
>>> assigned_class("CC1=CC(C)(C)OC(c2nsc3ccc(-n4c(=O)cc(C(F)(F)F)n(C)c4=O)cc23)C1 (centres unmarked) [Compound 65]")
0.0
>>> assigned_class("Cn1c(C(F)(F)F)cc(=O)n(-c2ccc3snc(C4(C)OCCO4)c3c2)c1=O [Compound 54]")
1.0
>>> assigned_class("Cn1c(C(F)(F)F)cc(=O)n(-c2ccc3snc(C4OC(C)(C)C(C)(C)O4)c3c2)c1=O [Compound 56]")
1.0
>>> assigned_class("CC1CC(C)(C)OC(c2nsc3ccc(-n4c(=O)cc(C(F)(F)F)n(C)c4=O)cc23)O1 (centres unmarked) [Compound 55]")
1.0
>>> assigned_class("Cn1c(C(F)(F)F)cc(=O)n(-c2ccc3snc(C4OCCCO4)c3c2)c1=O [Compound 28]")
1.0
>>> assigned_class("C=CC1COC(c2nsc3ccc(-n4c(=O)cc(C(F)(F)F)n(C)c4=O)cc23)O1 (centres unmarked) [Compound 76]")
0.0
>>> assigned_class("Cn1c(C(F)(F)F)cc(=O)n(-c2ccc3snc(C4OCC(CO)O4)c3c2)c1=O (centres unmarked) [Compound 73]")
0.0
>>> assigned_class("C[C@H]1OC(c2nsc3ccc(-n4c(=O)cc(C(F)(F)F)n(C)c4=O)cc23)O[C@@H]1C [Compound 48]")
1.0
>>> assigned_class("Cn1c(C(F)(F)F)cc(=O)n(-c2ccc3snc(-c4sccc4CBr)c3c2)c1=O [Compound 80]")
1.0
>>> assigned_class("COC(=O)C(C)Oc1ccsc1-c1nsc2ccc(-n3c(=O)cc(C(F)(F)F)n(C)c3=O)cc12 (centres unmarked) [Compound 23]")
0.0
>>> assigned_class("Cn1c(C(F)(F)F)cc(=O)n(-c2ccc3snc(C4OCCCS4)c3c2)c1=O (centres unmarked) [Compound 34]")
1.0
>>> assigned_class("CC1COC(c2nsc3ccc(-n4c(=O)cc(C(F)(F)F)n(C)c4=O)cc23)O1 (centres unmarked) [Compound 57]")
1.0
>>> assigned_class("Cn1c(C(F)(F)F)cc(=O)n(-c2ccc3snc(-c4ccoc4)c3c2)c1=O [Compound 83]")
0.0

====

Test system: TRZAWR (Wheat, Winter, cv Riband)
protocol.text: Postemergence herbicidal evaluation
Assay type: in vivo, Triticum aestivum
condition.summary: rate 0.0620 kg/ha
measured.metric: Postemergence herbicidal rating, TRZAWR

>>> recorded_number("Cc1ccc(-c2nsc3ccc(-n4c(=O)cc(C(F)(F)F)n(C)c4=O)cc23)nc1 [Compound 42]")
5.0
>>> recorded_number("Cc1cccnc1-c1nsc2cc(F)c(-n3c(=O)cc(C(F)(F)F)n(C)c3=O)cc12 [Compound 44]")
5.0
>>> recorded_number("Cn1c(C(F)(F)F)cc(=O)n(-c2ccc3snc(C(SCCO)SCCO)c3c2)c1=O [Compound 33]")
5.0
>>> recorded_number("CCc1cc(-c2nsc3ccc(-n4c(=O)cc(C(F)(F)F)n(C)c4=O)cc23)c(CC)s1 [Compound 8]")
5.0
